- TEST PROTOCOL: Novel Modifiers of Survival Motor Neuron (SMN) Protein: Gene Identification via Genome-wide siRNA Screen;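 also: luminescence tracks full-length SMN protein made from the SMN2 reporter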
- EXPERIMENTAL CONDITIONS: HEK293T SMN2-luciferase reporter, siRNA knockdown, 72 h; actives lie on both sides
In all, about 31,000 sequences went through this assay and about 1,400 (4.5%) were called active.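 The calls were made as follows: active = median seed-adjusted z-score above 1 or below -1; inactive = the rest.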 The full list was thinned out, with actives kept by preference.
Outcome (select one): class 1 for active, class 0 for inactive

Name the outcome recorded for GAAACUUUCAUUACGUAUATT against SNX7 in the assay.
class 0

Name the outcome recorded for GGAUUCUCAGUUACACUUATT against SLC25A3 in the assay.
class 0

Name the outcome recorded for GCAUCCCUACGGUUGUUGATT against EIF2B4 in the assay.
class 0

Name the outcome recorded for CCCACUAUGCAAAAUGUAATT against PCMT1 in the assay.
class 0

Name the outcome recorded for GAGUAAGUGAAAUAGAACATT against ZBTB26 in the assay.
class 0

Name the outcome recorded for GGCUUCAUAUCUAGACUAATT against APOBEC3A in the assay.
class 0

Name the outcome recorded for CAAAUGGGACUGUCAAUUATT against REPS2 in the assay.
class 0

Name the outcome recorded for AGCUGAUGUUCGAGCAGUATT against ACTL6B in the assay.
class 0

Name the outcome recorded for CAGCACUAUUAGACAGGAATT against ZBTB40 in the assay.
class 0

Name the outcome recorded for CCAGGUCUCGAAAACCAAATT against EN2 in the assay.
class 0

Name the outcome recorded for GGAGGGUUUUCACGAUGAATT against AP2B1 in the assay.
class 0

Name the outcome recorded for CAACGGGACUAUUAUGAUATT against HNRNPC in the assay.
class 1

Name the outcome recorded for GGAUACUCUGAUGAAGAUATT against GNAQ in the assay.
class 1

Name the outcome recorded for AGAUAAAGCGAUCUAAACUTT against ASCC3 in the assay.
class 0

Name the outcome recorded for GGACGAAUGAGUUCCAGUUTT against PCDHB8 in the assay.
class 1

Name the outcome recorded for GGAACCCUUUGAUCAAUUUTT against ADAMTS7 in the assay.
class 0

Name the outcome recorded for GCAUGUCUCUAAUAUUCCUTT against RBM9 in the assay.
class 0

Name the outcome recorded for GCAGAUCCAUCAACUACGATT against UBR4 in the assay.
class 0

Name the outcome recorded for GGAGUACCGGCUAACAAUATT against MORC4 in the assay.
class 0

Name the outcome recorded for GCCUCACAGGUGCAUCAUATT against TSC2 in the assay.
class 1

Name the outcome recorded for GAUGGAAGAUGGAACGGUUTT against CDC42BPA in the assay.
class 0

Name the outcome recorded for GCACCAAAGUAUACAACGATT against PRKAR2B in the assay.
class 0

Name the outcome recorded for GAAAGGCAGUUUUCGUAAATT against NXF3 in the assay.
class 0

Name the outcome recorded for GAGUUUCUGUCCAAACUGATT against IL17RA in the assay.
class 1

Name the outcome recorded for GAAACAACUUGAUUUCGAATT against PCDHB8 in the assay.
class 1

Name the outcome recorded for GCGAUGAGGUGGACUUGUATT against ST3GAL1 in the assay.
class 0

Name the outcome recorded for CAAGCAUGGUCUUUCUACUTT against TUBB2A in the assay.
class 1

Name the outcome recorded for ACACCAGCCUUGCACCUGATT against NCR1 in the assay.
class 0

Name the outcome recorded for GGGCGGUACUUUACAACUATT against KCTD9 in the assay.
class 1

Name the outcome recorded for GGCCGGUGUUUGACGACAATT against STK32C in the assay.
class 0

Name the outcome recorded for GAUCCGAGAUCAACACCUUTT against PIK3R3 in the assay.
class 1

Name the outcome recorded for GGAUGUGGGUUUACUCUUUTT against SLC1A5 in the assay.
class 0

Name the outcome recorded for UCAAGGCCCUGUGCGCUAATT against PPP4C in the assay.
class 1

Name the outcome recorded for GCCUGUCCCUAGCAUUGUUTT against CES2 in the assay.
class 0

Name the outcome recorded for GCAGCUCCGAAUUCAGGAATT against TFE3 in the assay.
class 0

Name the outcome recorded for CCAGACCACUUGCUAUGAATT against GATA6 in the assay.
class 0

Name the outcome recorded for GGACAAAUUUUGGAGAGAATT against COG2 in the assay.
class 0

Name the outcome recorded for UGUUGACACUUUUAUCCAATT against ANAPC11 in the assay.
class 0

Name the outcome recorded for GCCGCAUCGUAGCUCGUAATT against RRAD in the assay.
class 0

Name the outcome recorded for CGACUUGCUAAGCUACAUATT against MAOA in the assay.
class 0

Name the outcome recorded for CAGUUUAUCUCAGACAUCUTT against CD9 in the assay.
class 1

Name the outcome recorded for GCCUUUUGCUCAUCUCACUTT against TNFSF11 in the assay.
class 0

Name the outcome recorded for GAAAUUCCACUGUAUCUAATT against COX7A2 in the assay.
class 0

Name the outcome recorded for GAAUGAUAUUGUCCAUCGATT against CDKL5 in the assay.
class 0

Name the outcome recorded for GCCCUGAACAAGUUGCUCATT against TRPV6 in the assay.
class 0

Name the outcome recorded for CCAUCACCUUCAAUCCGCUTT against PEMT in the assay.
class 0

Name the outcome recorded for GGAUUAUUCCUACCUAAUUTT against CDYL2 in the assay.
class 0

Name the outcome recorded for GGAAGGAAUUCAACCGGAUTT against ZNF366 in the assay.
class 0

Name the outcome recorded for CCGAGAGUAUGUCGACUUATT against CBFB in the assay.
class 0

Name the outcome recorded for GAGCUUCAACUAACAGGAATT against NUPL2 in the assay.
class 0
